target-entity: T1, human recombinant GIP receptor (human, UniProt P48546 22-466)
T1 construct: whole, on cells; Membranes of CHO-K1 cells expressing the receptor; also called hGIP receptor
T1 sequence (looked up): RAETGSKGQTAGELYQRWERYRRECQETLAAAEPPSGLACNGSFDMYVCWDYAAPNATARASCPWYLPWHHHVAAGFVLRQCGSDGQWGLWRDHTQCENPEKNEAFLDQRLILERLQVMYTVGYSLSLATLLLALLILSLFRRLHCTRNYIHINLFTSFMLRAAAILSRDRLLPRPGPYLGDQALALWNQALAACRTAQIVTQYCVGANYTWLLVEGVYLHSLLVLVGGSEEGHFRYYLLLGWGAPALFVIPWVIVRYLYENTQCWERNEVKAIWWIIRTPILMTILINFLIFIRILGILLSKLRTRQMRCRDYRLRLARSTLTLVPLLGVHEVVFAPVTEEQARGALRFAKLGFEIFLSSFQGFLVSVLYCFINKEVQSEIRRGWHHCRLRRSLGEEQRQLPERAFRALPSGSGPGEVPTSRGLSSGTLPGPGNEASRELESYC
measurement-notes: [125I]GIP competition, membranes of CHO-K1 cells expressing human GIP receptor
Where no end group is shown, it is not given here. [ ]: non-standard residue; d: D form. The star is where a group is joined. Psu = N-propylsuccinimide on the Cys sulfur (from N-propylmaleimide), CCCN1C(=O)CC(*)C1=O; Ac6c = NC1(C(=O)O)CCCCC1; Nle = CCCC[C@H](N)C(=O)O; Ac5c = NC1(C(=O)O)CCCC1; Aib = CC(C)(N)C(=O)O
endpoint-label: Ki (nM)
// note: answer is a bare numeric in nM

Noted for YXEGTFXSDYSIAXDKIHQQDFVNWLLAQK (Aib at 2; A6c at 7; Nle at 14; C-terminal amide) [(Aib^2, A6c^7, Nle^14)hGIP(1-30)-NH2] : its Ki reads 1.04

Noted for Y[Aib]EGTF[Ac6c]SDYSIAMDKIHQQDFVNWLLAQKGKKNDWKHNC(Psu)TQ-OH [[Aib^2, A6c^7, Cys(Psu)^40]hGIP(1-42)-OH] : its Ki reads 16

Noted for Y[Aib]EGTF[Ac6c]SDYSIAMDKIHQQDFVNWLLAQKGKKNDC(Psu)KHNITQ-OH [[Aib^2, A6c^7, Cys(Psu)^36]hGIP(1-42)-OH] : its Ki reads 635

Noted for YXEGTFISDYSIAXDKIHQQDFVNWLLAQKGKKNDWKHNITQ (A5c at 2; Nle at 14; C-terminal free acid) [(A5c^2, Nle^14)hGIP(1-42)-OH] : its Ki reads 15.9

Noted for YAEGTFISDYXIAMDKIHQQDFVNWLLAQKGKKNDWKHNXTQ (D-Ala at 2; A5c at 11 and 40; C-terminal free acid, X stands for the non-natural residue) [(D-Ala^2, A5c^11,40)hGIP(1-42)-OH] : its Ki reads 0.59

Noted for YXEGTFXSDYSIXXDKIHQQDFVNWLLAQKGKKNDWKHNITQ (Aib at 2 and 13; A6c at 7; Nle at 14; C-terminal free acid) [(Aib^2, 13, A6c^7, Nle^14)hGIP(1-42)-OH] : its Ki reads 0.3

Noted for YAEGTFISDYXIAMDKIHQQDFVNWLLAQKGKKNDWKHNITQH (D-Ala at 2; A5c at 11; C-terminal free acid, X stands for the non-natural residue) [(D-Ala^2, A5c^11, His^43)hGIP(1-43)-OH] : its Ki reads 0.56

Noted for YAPGTFISDYSIXXDKIHQQDFVNWLLAQKGKKNDWKHNITQ (Aib at 13; Nle at 14; C-terminal free acid) [(Pro^3, Aib^13, Nle^14)hGIP(1-42)-OH] : its Ki reads 667

Noted for YXEGTFXSDYSIAXDKIHQQDFVNWLLAQK (Aib at 2; A5c at 7; Nle at 14; C-terminal amide) [(Aib^2, A5c^7, Nle^14)hGIP(1-30)-NH2] : its Ki reads 4.9

Noted for Y[Aib]EG[Ac5c]FISDYSIAMDKIHQQDFVNWLLAQKGKKNDWKHNITQ-OH [(Aib^2, A5c^5)hGIP(1-42)-OH] : its Ki reads 2.26

Noted for YXEGTFISDYSXAMDKIHQQDFVNWLLAQKGKKNDWKHNITQ (Aib at 2 and 12; C-terminal free acid) [(Aib^2, 12)hGIP(1-42)-OH] : its Ki reads 4.98

Noted for YXEGTFISXYSIAMDKIHQQDFVNWLLAQK (Aib at 2 and 9; C-terminal amide) [(Aib^2, 9)hGIP(1-30)-NH2] : its Ki reads 5.38

Noted for Y[Aib]EGTF[Ac5c]SDYSIA[Nle]DKIHQQDFVNWLLAQKGKKNDWKHNITQ-OH [(Aib^2, A5c^7, Nle^14)hGIP(1-42)-OH] : its Ki reads 0.69

Noted for YXEGTFISDYSXAMDKIHQQDFVNWLLAQK (Aib at 2; A5c at 12; C-terminal amide) [(Aib^2, A5c^12)hGIP(1-30)-NH2] : its Ki reads 0.98

Noted for Y[Aib]EGTF[Ac6c]SDYSIA[Nle]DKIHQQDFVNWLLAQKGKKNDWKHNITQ-OH [(Aib^2, A6c^7, Nle^14)hGIP(1-42)-OH] : its Ki reads 0.45

Noted for YXEGTFISDYXIAXDKIHQQDFVNWLLAQKGKKNDWKHNITQH (Aib at 2; A5c at 11 and 14; C-terminal free acid) [(Aib^2, A5c^11,14, His^43)hGIP(1-43)-OH] : its Ki reads 0.55

Noted for YAXGTFISDYXIAMDKIHQQDFVNWLLAQKGKKNDWKHNITQ (Tic at 3; A5c at 11; C-terminal free acid) [(Tic^3, A5c^11)hGIP(1-42)-OH] : its Ki reads 503

Noted for YXEGTFISDYXIAXDKIHQQDFVNWLLAQKGKKNDWKHNITQ (Aib at 2; A5c at 11; A6c at 14; C-terminal free acid) [(Aib^2, A5c^11, A6c^14)hGIP(1-42)-OH] : its Ki reads 0.18

Noted for YXEGTFXSDYSIAXDKIHQQDFVNWLLAQKGKKNDWKHNITQ (Aib at 2; A5c at 7; A6c at 14; C-terminal free acid) [(Aib^2, A5c^7, A6c^14)hGIP(1-42)-OH] : its Ki reads 0.63

Noted for Y[Aib]EGTF[Ac6c]SDYSIA[Nle]DKIHQQDFVNWLL[Aib]QKGKKNDWKHNITQ-OH [(Aib^2, 28, A6c^7, Nle^14)hGIP(1-42)-OH] : its Ki reads 1.22

Noted for YXEGTFIXDYSIAMDKIHQQDFVNWLLAQK (Aib at 2 and 8; C-terminal amide) [(Aib^2, 8)hGIP(1-30)-NH2] : its Ki reads 15.9

Noted for YXEGTFXSDYSIAMDKIHQQDFVNWLLAQKXKKNDWKHNITQ (Aib at 2 and 31; A6c at 7; C-terminal free acid) [(Aib^2, 31, A6c^7)hGIP(1-42)-OH] : its Ki reads 6.96

Noted for YXEGTFISDYSIXMDKIHQQDFVNWLLAQK (Aib at 2 and 13; C-terminal amide) [(Aib^2, 13)hGIP(1-30)-NH2] : its Ki reads 0.33

Noted for YXEGTFISDYXIAMDKIHQQDFVNWLLAQK (Aib at 2; A5c at 11; C-terminal amide) [(Aib^2, A5c^11)hGIP(1-30)-NH2] : its Ki reads 0.09
